Test: qHTS assay for small molecule agonists of the p53 signaling pathway (AID 651631); also: nearly all actives have a fitted effect of over 15% in size
Settings: HCT-116 p53RE-bla reporter, beta-lactamase FRET ratio, 16 h; series mostly up to 73.3 µM
Records with an inconclusive call do not appear. Activity calls are given as the source filed them. Calls follow the shape of the full dose curve.
metric: outcome

Query block: Any idea what its outcome is? The compound is CCCCCCCCCC(=O)NO
Result block: inactive

Query block: State the recorded outcome for this entry: O=C1[O][Bi][O]c2ccccc21
Result block: inactive

Query block: What value of outcome has been reported for the following compound? O=C[C@H](O)[C@@H](O)[C@@H](O)[C@H](O)CO
Result block: inactive

Query block: Entry CC(C)(S)C(=O)N[C@@H](CS)C(=O)O has what outcome?
Result block: inactive

Field: next compound
Query block: Which value of outcome has been reported for CC12CCC(C[N+](C)(CCC[N+](C)(C)C)C1)C2(C)C (stereo not given) in the records?
Result block: inactive

====

Assay: qHTS assay for small molecules that induce genotoxicity in human embryonic kidney cells expressing luciferase-tagged ATAD5 - cell viability (AID 651634); also: nearly all actives have a fitted effect of over 25% in size
Conditions: HEK293T ATAD5-luc cells viability, CellTiter-Fluor, 15.5 h; series mostly up to 83.3 µM
Results filed as inconclusive are left out. Active and inactive are the calls of the source. The call rests on the fitted dose curve.
Permitted responses: yes (1) for active, no (0) for inactive

Query block: I'd appreciate the recorded outcome for CSCC[C@H](NC(=O)[C@H](Cc1ccc(OS(=O)(=O)O)cc1)NC(=O)[C@@H](N)CC(=O)O)C(=O)NCC(=O)N[C@@H](Cc1c[nH]c2ccccc12)C(=O)N[C@@H](CCSC)C(=O)N[C@@H](CC(=O)O)C(=O)N[C@@H](Cc1ccccc1)C(N)=O from this test.
Result block: no (0)

Query block: Recorded test outcome, item COc1ccc([C@@H]2CC(=O)c3c(O)cc(O[C@@H]4O[C@H](CO[C@@H]5O[C@@H](C)[C@H](O)[C@@H](O)[C@H]5O)[C@@H](O)[C@H](O)[C@H]4O)cc3O2)cc1O
Result block: no (0)

Query block: Hi, sorry to bother you, what did the test record for CN[C@H](CC(C)C)C(=O)N[C@H]1C(=O)N[C@@H](CC(N)=O)C(=O)N[C@H]2C(=O)N[C@H]3C(=O)N[C@H](C(=O)N[C@@H](C(=O)O)c4cc(O)cc(O)c4-c4cc3ccc4O)[C@H](O)c3ccc(c(Cl)c3)Oc3cc2cc(c3O[C@@H]2O[C@H](CO)[C@@H](O)[C@H](O)[C@H]2O[C@H]2C[C@](C)(N)C(O)[C@H](C)O2)Oc2ccc(cc2Cl)[C@H]1O (some centres not stated) ?
Result block: no (0)

Query block: I'd appreciate the recorded outcome for Cc1cc(=O)c(C(=O)N[C@@H](C(=O)N[C@@H]2C(=O)N3C(C(=O)O)=C(CSc4nnnn4C)CS[C@H]23)c2ccc(O)cc2)c[nH]1 from this test.
Result block: no (0)

Query block: Outcome? C[S+](C)CCC(N)C(=O)O (configuration not stated)
Result block: no (0)

Query block: Outcome? CC(C)(C)c1ccc2c(S(=O)(=O)O)c(C(C)(C)C)ccc2c1
Result block: no (0)

Query block: For this molecule, state the assay outcome: CCCCCCCCCCCCCCCCC(C(=O)O)C(O)(CC(=O)O)C(=O)O (configuration not stated)
Result block: no (0)

Query block: # lookup: test call for CC(=O)OCC(=O)[C@@]1(O)CC[C@H]2[C@@H]3C[C@H](C)C4=CC(=O)C=C[C@]4(C)[C@H]3[C@@H](O)C[C@@]21C
Result block: no (0)

Query block: Could you check what this test reported for C=CC[N+]1([C@H]2C[C@H]3[C@@H]4CC[C@H]5C[C@H](O)[C@@H](N6CCOCC6)C[C@]5(C)[C@H]4CC[C@]3(C)[C@H]2OC(C)=O)CCCC1 ?
Result block: no (0)

Query block: I'd appreciate the recorded outcome for O=C1OC(=O)c2cc(-c3ccc4c(c3)C(=O)OC4=O)ccc21 from this test.
Result block: no (0)

Query block: Short answer needed: outcome of this test for O=C1CCC(c2ccc(-n3ccnc3)cc2)=NN1 ?
Result block: no (0)

Query block: Assay result, entry C[C@H]1O[C@@H](O[C@H]2CC[C@@]3(C)[C@H](CC[C@@H]4[C@@H]3C[C@@H](O)[C@]3(C)[C@@H](C5=CC(=O)OC5)CC[C@]43O)C2)C[C@H](O)[C@@H]1O[C@H]1C[C@H](O)[C@H](O[C@H]2C[C@H](O)[C@H](O[C@@H]3O[C@H](CO)[C@@H](O)[C@H](O)[C@H]3O)[C@@H](C)O2)[C@@H](C)O1 — outcome?
Result block: yes (1)

Origin of measurements: PubChem BioAssay (Tox21)
